targetUnderTest: Drosophila octopamine receptor (Drosophila melanogaster, UniProt P22270)
Construct: membranes or whole cells
Sequence (P22270 27-601): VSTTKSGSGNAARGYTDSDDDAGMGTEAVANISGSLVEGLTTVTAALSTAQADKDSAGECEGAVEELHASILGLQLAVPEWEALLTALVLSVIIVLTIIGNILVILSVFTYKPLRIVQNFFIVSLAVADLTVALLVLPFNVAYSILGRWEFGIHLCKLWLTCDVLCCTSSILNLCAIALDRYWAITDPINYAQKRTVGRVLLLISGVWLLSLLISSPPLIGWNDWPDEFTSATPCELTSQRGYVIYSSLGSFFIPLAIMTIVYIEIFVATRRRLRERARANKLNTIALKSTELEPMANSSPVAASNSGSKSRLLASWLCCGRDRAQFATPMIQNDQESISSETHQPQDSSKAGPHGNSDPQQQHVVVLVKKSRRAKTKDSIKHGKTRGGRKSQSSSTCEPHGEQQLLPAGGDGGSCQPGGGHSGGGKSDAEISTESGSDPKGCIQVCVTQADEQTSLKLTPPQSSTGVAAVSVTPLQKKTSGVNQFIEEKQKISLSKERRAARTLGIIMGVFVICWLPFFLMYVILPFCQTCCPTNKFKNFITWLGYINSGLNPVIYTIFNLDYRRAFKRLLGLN
protocolNotes: [3H]yohimbine competition displacement binding to membranes of transfected CHO-K1 cells
experimentalParameters: read-out: K1
valueKind: Ki (µM)
Numbers only; they are read as µM.

compound | targetUnderTest | unitName | Ki
CCN(CC)CCNC(=O)c1cc(Cl)c(N)cc1OC [Metoclopramide] | Drosophila octopamine receptor (Drosophila melanogaster, UniProt P22270) | µM | 4.6

Here's the next entry for you.
Ask: Please report Ki for the following compound: Cc1ccc(N(CC2=NCCN2)c2cccc(O)c2)cc1
Result: 2.2
